# target-or-test-system: ABL(E255K) (Homo sapiens, UniProt P00519, E255K)
# Sequence (P00519 whole entry E255K): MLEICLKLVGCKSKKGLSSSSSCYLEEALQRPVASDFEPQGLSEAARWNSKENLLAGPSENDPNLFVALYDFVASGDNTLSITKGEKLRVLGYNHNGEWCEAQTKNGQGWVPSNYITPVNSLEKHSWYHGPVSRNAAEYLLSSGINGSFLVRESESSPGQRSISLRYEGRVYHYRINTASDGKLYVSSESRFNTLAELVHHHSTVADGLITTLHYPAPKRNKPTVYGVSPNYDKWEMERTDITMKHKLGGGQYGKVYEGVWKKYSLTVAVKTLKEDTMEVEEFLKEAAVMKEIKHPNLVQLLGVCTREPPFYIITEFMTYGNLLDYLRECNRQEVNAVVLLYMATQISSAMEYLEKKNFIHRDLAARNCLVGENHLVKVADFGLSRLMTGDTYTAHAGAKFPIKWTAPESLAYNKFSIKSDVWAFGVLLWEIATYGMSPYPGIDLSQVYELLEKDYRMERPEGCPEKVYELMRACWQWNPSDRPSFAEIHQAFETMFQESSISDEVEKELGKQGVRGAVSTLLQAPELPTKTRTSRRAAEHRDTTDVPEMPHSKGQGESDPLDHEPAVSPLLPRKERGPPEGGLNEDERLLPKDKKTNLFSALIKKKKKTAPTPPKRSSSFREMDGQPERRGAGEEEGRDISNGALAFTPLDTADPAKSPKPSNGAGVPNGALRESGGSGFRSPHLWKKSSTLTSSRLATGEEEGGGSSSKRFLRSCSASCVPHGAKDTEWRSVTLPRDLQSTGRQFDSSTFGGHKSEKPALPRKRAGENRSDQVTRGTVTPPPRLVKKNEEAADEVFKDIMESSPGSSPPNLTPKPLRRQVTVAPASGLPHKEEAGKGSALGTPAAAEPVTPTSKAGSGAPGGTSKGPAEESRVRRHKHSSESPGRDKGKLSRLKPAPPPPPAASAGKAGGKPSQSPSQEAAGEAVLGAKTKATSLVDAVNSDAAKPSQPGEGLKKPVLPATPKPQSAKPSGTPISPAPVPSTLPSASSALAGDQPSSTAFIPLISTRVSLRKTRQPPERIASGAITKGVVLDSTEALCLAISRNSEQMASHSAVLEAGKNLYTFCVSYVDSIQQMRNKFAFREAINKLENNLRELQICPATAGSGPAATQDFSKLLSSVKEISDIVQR
# assay-info: Off-chip Mobility Shift Assay
# condition-set: read-out: IC50, recombinant ABL (E255K) activity
attribute-measured: IC50

Cc1nc(Nc2ncc(C(=O)Nc3c(C)cccc3Cl)s2)cc(N2CC[C@@H](O)C2)n1    < 1 nM
Cc1nc(Nc2ncc(C(=O)Nc3c(C)cccc3Cl)s2)cc(N2CC[C@H](O)C2)n1    < 1 nM

###

# target-or-test-system: ABL (Homo sapiens, UniProt P00519)
# Sequence (P00519 whole entry): as the sequence (P00519 whole entry E255K) above, with K255E counted along it
# assay-info: Off-chip Mobility Shift Assay
# condition-set: read-out: IC50, recombinant ABL activity
attribute-measured: IC50

Cc1nc(Nc2ncc(C(=O)Nc3c(C)cccc3Cl)s2)cc(N2CC[C@@H](O)C2)n1    < 1 nM
Cc1nc(Nc2ncc(C(=O)Nc3c(C)cccc3Cl)s2)cc(N2CC[C@H](O)C2)n1    < 1 nM
